B1: Twister Ribozyme (parent)
chain: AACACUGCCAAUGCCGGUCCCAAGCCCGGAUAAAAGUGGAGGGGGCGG

# Variants of: B1
# test-summary: self-cleavage, relative activity (ratio to wild type); higher = more cleavage; co-transcriptional
reported-metric: self-cleavage

>>> print(df.to_string())
    mutant_name  value_reported
 0    G13C A23G           0.139
 1    G29C A30G            0.91
 2     U6A C46G           0.988
 3     C3G G44C           0.345
 4     A1C G13A            0.12
 5     C3U U31G           0.445
 6     G7U C26A          0.0629
 7     C3G U31G            0.44
 8    A10U C19U            0.92
 9      A2G U6C           0.103
10    G17U G44C           0.293
11     C9G C25U           0.194
12    A33C A35G           0.707
13    A32G G44U            1.06
14      A1U U6C          0.0726
15    G16U C25G           0.154
16    U31A G44U            0.83
17    A11U G47U            0.98
18     C9A G41A           0.145
19     G7C G38C          0.0787
20    A22G C26G          0.0488
21    G13C A30U           0.612
